Measurement Target: Solute carrier organic anion transporter family member 1B3 (Homo sapiens)
Sequence (Q9NPD5 whole entry): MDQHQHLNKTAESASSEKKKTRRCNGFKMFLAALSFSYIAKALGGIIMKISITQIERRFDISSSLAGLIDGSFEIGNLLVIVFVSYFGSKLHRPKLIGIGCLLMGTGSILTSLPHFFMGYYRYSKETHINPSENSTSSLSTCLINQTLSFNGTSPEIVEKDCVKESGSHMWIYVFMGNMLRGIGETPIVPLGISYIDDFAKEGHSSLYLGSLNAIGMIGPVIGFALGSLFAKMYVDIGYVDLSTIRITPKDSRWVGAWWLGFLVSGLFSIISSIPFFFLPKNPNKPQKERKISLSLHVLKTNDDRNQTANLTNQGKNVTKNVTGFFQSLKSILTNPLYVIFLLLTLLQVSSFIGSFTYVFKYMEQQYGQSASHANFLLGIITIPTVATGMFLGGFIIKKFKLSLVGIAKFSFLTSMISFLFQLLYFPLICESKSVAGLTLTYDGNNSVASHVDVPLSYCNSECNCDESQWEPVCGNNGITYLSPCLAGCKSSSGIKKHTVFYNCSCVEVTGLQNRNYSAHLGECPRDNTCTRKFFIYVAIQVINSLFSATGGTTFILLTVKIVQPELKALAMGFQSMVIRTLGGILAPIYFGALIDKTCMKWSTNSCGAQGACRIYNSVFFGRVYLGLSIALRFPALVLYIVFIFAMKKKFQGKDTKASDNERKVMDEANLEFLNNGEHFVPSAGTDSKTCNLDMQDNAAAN
Measurement Setup: chinese hamster, cho, 10 µM
This section presents compounds with their documented residual activity values.
Provide the reading as a plain figure in %.

Here is how some compounds turned out for residual activity.
compound=CC[C@H]1/C=C/C=C/C[C@@H](C)[C@H](O)[C@@](C)(O)C(=O)[C@@H](C)[C@H](O)[C@@H](C)C(=O)[C@@H](C)[C@H](O)[C@@H](C)/C=C/C(=O)O[C@@H]2[C@H](C)[C@H](CC1)O[C@]1(CC[C@H](C)[C@H](C[C@@H](C)O)O1)[C@H]2C measurement_target="Solute carrier organic anion transporter family member 1B3 (Homo sapiens)" measurement_type="residual activity" recorded_result=3.002
compound=CC1(C)[C@H](O)CC(=O)[C@]2(C)[C@H]3CC[C@@]4(C)[C@H](c5ccoc5)OC(=O)[C@H]5O[C@]54[C@]3(C)C(=O)C[C@@H]12 measurement_target="Solute carrier organic anion transporter family member 1B3 (Homo sapiens)" measurement_type="residual activity" recorded_result=61.45
compound=COc1ccc(-c2cc(=O)c3c(O)c(OC)c(O[C@@H]4O[C@H](CO[C@@H]5O[C@@H](C)[C@H](O)[C@@H](O)[C@H]5O)[C@@H](O)[C@H](O)[C@H]4O)cc3o2)cc1 measurement_target="Solute carrier organic anion transporter family member 1B3 (Homo sapiens)" measurement_type="residual activity" recorded_result=155.8
compound=CC(C)CCC[C@@H](C)[C@H]1CC[C@H]2[C@@H]3C(=O)C=C4C[C@@H](O)CC[C@]4(C)[C@H]3CC[C@]12C measurement_target="Solute carrier organic anion transporter family member 1B3 (Homo sapiens)" measurement_type="residual activity" recorded_result=90.78

Next up:
### Prompt Lookup: residual activity / Solute carrier organic anion transporter family member 1B3 (Homo sapiens) / C[C@@H]1CCC[C@H](C)N1NC(=O)c1ccc(Cl)c(S(N)(=O)=O)c1 [CLOPAMIDE]
### Response 107.3

====

residual activity reference
Measurement Target: Solute carrier organic anion transporter family member 1B1 (Homo sapiens)
Sequence (Q9Y6L6 whole entry): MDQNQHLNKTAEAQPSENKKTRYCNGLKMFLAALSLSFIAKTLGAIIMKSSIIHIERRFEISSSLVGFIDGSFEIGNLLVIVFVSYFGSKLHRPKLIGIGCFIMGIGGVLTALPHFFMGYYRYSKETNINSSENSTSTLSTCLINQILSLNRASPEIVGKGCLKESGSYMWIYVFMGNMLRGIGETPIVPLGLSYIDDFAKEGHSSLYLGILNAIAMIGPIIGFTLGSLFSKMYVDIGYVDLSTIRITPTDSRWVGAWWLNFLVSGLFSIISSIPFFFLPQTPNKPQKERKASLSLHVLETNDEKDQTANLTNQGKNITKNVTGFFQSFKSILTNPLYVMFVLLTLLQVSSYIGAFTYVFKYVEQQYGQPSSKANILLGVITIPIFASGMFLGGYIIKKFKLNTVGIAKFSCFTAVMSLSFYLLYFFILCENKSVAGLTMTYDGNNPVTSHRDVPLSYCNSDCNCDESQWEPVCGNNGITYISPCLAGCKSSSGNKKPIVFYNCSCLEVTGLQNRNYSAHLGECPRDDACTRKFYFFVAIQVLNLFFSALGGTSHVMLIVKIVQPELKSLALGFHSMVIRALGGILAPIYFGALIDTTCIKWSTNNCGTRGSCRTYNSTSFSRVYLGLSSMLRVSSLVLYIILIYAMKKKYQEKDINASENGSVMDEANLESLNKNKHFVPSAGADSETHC
Measurement Setup: chinese hamster, cho, 10 µM
Use % as the unit, but write only the number.

Known results for compounds:
compound="O=C(O[C@@H]1Cc2c(O)cc(O)cc2O[C@@H]1c1cc(O)c(O)c(O)c1)c1cc(O)c(O)c(O)c1 [EPIGALOCATECHIN GALLATE]" measurement_type="residual activity" recorded_result=49.04
compound="COc1ccc(C2CC(=O)c3ccc(OC)cc3O2)cc1 (configuration not stated) [LIQUIRITIGENIN DIMETHYL ETHER]" measurement_type="residual activity" recorded_result=104.2
compound="CC1=C(/C=C/C(C)=C/C=C/C(C)=C/C=C/C=C(C)/C=C/C=C(C)/C=C/C2=C(C)C(=O)[C@@H](O)CC2(C)C)C(C)(C)C[C@H](O)C1=O [ASTAXANTHIN]" measurement_type="residual activity" recorded_result=95.25
compound="CN(C)[C@@H]1C(O)=C(C(N)=O)C(=O)[C@@]2(O)C(O)=C3C(=O)c4c(O)ccc(Cl)c4[C@@](C)(O)[C@H]3C[C@@H]12.Cl [CHLORTETRACYCLINE HYDROCHLORIDE]" measurement_type="residual activity" recorded_result=128.8
compound="S=C=NCc1ccccc1 [BENZYL ISOTHIOCYANATE]" measurement_type="residual activity" recorded_result=170.7
compound="CCOc1ccc(C(=O)c2ccc(O)c(O)c2O)cc1 [2,3,4-TRIHYDROXY-4'-ETHOXYBENZOPHENONE]" measurement_type="residual activity" recorded_result=134.1

// below: residual activity requested for another compound
### Prompt Which measured residual activity belongs to Sc1ncnc2nc[nH]c12 [MERCAPTOPURINE ANHYDROUS] , tested on Solute carrier organic anion transporter family member 1B1 (Homo sapiens)?
### Response 107.8
